- TARGET: PDE1B (Homo sapiens, UniProt Q01064)
- Sequence (Q01064 whole entry): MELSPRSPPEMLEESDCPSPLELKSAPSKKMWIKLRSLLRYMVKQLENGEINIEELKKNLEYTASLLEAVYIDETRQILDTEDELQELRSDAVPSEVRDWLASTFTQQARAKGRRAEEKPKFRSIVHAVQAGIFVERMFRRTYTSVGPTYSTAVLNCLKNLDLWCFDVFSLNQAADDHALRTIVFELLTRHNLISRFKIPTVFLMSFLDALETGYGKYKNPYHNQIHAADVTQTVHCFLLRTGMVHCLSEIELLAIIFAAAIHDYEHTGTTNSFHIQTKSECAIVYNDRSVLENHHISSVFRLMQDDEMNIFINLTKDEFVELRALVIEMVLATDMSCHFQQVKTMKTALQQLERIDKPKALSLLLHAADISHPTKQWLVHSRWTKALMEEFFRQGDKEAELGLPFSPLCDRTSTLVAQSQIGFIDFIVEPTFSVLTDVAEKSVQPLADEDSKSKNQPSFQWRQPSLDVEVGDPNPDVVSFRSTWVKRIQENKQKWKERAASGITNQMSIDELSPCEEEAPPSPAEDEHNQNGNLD
- ASSAY OVERVIEW: In vitro HTRF PDE1 inhibition assay (PDE1B)
- Format: biochemical
- ASSAY CONTEXT: 100 nM cyclic GMP, calmodulin, 45 minutes at 37° C.
Recorded IC50 by entry

COMPOUND | OBSERVABLE | RECORDED MEASUREMENT
CC(C)c1ncc2c(=O)n3c(nn12)NC(C1CCCCC1)CC3 (stereo not shown) | IC50 | < 1 µM
CC(C)(C)c1ncc2c(=O)n3c(nn12)NC(c1ccc(Cl)cc1)CC3 (stereo not shown) | IC50 | < 1 µM
CC(C)c1ncc2n1NC1=N[C@H](c3ccc(Cl)cc3)CN1C2=O | IC50 | < 1 µM

Fill in: IC50 of `Cc1cccc([C@@H]2CCn3c(nn4c(C5CCOCC5)ncc4c3=O)N2)c1` is ___
< 1 µM

Fill in: IC50 of `COC(C)(C)c1ncc2c(=O)n3c(nn12)N[C@@H](c1ccc(Cl)cc1)CC3` is ___
< 1 µM

Fill in: IC50 of O=c1c2ncnc(C3CCOCC3)c2nc2n1CCC(c1ccc(Cl)cc1)N2 (stereo not shown) is ___
< 1 µM

Fill in: IC50 of `COc1ccc([C@H]2CCn3c(nn4c(C(C)C)ncc4c3=O)N2)cc1` is ___
< 1 µM

Fill in: IC50 of `O=c1c2cnc(C(F)(F)F)n2nc2n1C[C@H](c1ccc(Cl)cc1)N2` is ___
1 to 10 µM

Fill in: IC50 of `O=c1c2cnc(C3CCOCC3)n2nc2n1CC[C@@H](c1cccc(Cl)c1)N2` is ___
< 1 µM

Fill in: IC50 of CC(C)c1onc2c(=O)n3c(nc12)NC(c1ccc(C#N)cc1)CC3 (stereo not shown) is ___
1 to 10 µM

Fill in: IC50 of `C=C(C)c1ncc2c(=O)n3c(nn12)N[C@@H](c1ccc(Cl)cc1)CC3` is ___
< 1 µM

Fill in: IC50 of `COc1ccc([C@H]2Cn3c(nc4c(cnn4C(C)C)c3=O)N2)cc1` is ___
< 1 µM

Fill in: IC50 of COc1ccc(C2CCn3c(nn4c(C(C)C)ncc4c3=O)N2)cc1 (stereo not shown) is ___
< 1 µM
